Biological target: EYA1A (Homo sapiens)
Construct: expressed in transfected cells; host or cells: transgenic fibroblasts
Sequence (Q99502 1-559 isoform Q99502-2): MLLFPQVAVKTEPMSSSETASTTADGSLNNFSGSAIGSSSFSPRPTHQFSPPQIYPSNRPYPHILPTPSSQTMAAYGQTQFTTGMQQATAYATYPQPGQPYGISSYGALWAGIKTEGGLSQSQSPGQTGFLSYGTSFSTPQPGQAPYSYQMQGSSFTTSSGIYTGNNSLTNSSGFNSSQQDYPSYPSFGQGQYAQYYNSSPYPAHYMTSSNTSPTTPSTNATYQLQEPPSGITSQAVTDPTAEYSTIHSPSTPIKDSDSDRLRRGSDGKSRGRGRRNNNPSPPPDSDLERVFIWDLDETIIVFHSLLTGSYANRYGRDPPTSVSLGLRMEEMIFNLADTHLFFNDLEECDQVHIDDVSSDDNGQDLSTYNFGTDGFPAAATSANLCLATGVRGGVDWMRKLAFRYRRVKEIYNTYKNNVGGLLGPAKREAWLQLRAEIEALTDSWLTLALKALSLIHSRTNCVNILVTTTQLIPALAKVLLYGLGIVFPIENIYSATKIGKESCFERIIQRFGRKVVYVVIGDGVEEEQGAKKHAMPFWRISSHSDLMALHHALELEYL
Test: Screen of NCI Mechanistic Set II for EYA1A phosphatase activity with pNPP substrate
Assay type: biochemical
Conditions: transgenic fibroblasts, compared to control cultures
measured-endpoint: EYA1A phosphatase activity

Below, each entry is followed by its recorded EYA1A phosphatase activity result.
INSERT INTO measurements (molecule, measurement) VALUES
  ('COc1cc2cc3c4cc(OC)c(OC)cc4cc[n+]3c(C)c2cc1OC.O=C([O-])CS(=O)(=O)O', 'Strong inhibitors'),
  ('O=C1C=C(Nc2ccccc2C(=O)CC(=O)C(=O)Nc2ccc(Cl)cc2)c2ccccc2C1=O', 'Strong inhibitors'),
  ('N#CC(=C1C=CC(=NO)C=C1)c1ccc(Cl)cc1', 'Strong inducers'),
  ('O=c1ccc(-c2ccccc2)nn1-c1nc2ccccc2s1', 'Strong inducers'),
  ('CN(C)c1cccc(/C=C(\C#N)c2ccccc2)c1', 'Strong inducers'),
  ('Cc1c2ccncc2cc2c1[nH]c1ccccc12', 'Strong inhibitors');

Would you kindly look at the next entry?
Determine from records and report EYA1A phosphatase activity for O=C1C(c2cnc3ccccc3n2)=C(O)c2ccccc21 [NSC No. 634224, 3-hydroxy-2-(2-quinoxalinyl)-1-indenone] Strong inducers
